EXPERIMENTAL DETAILS: Pharmacokinetic interaction study after oral administration of DPZ and TAD, alone or in combination, in rats
STUDY CONDITIONS: male, Sprague-Dawley, rat, plasma, po, 0.3 mg/kg
ENDPOINT: Cmax (ng/mL)
Number only, in ng/mL; omit the unit.

Problem: Recorded Cmax of CN1CC(=O)N2[C@H](c3ccc4c(c3)OCO4)c3[nH]c4ccccc4c3C[C@@H]2C1=O [Tadalafil, tadalafil] , please.
Result: 17.8

---

EXPERIMENTAL DETAILS: Pharmacokinetic interaction study after oral administration of DPZ and TAD, alone or in combination, in rats
STUDY CONDITIONS: male, Sprague-Dawley, rat, plasma, po, 0.3 mg/kg
ENDPOINT: AUC(0-inf) (ng·h/mL)
Number only, in ng·h/mL; omit the unit.

Problem: Recorded AUC(0-inf) of CN1CC(=O)N2[C@H](c3ccc4c(c3)OCO4)c3[nH]c4ccccc4c3C[C@@H]2C1=O , please.
Result: 50.4

---

EXPERIMENTAL DETAILS: Pharmacokinetic interaction study after oral administration of DPZ and TAD, alone or in combination, in rats
STUDY CONDITIONS: male, Sprague-Dawley, rat, plasma, po, 0.3 mg/kg
Procedure: The rat plasma was stored at −70 °C. The plasma samples were thawed at room temperature and then centrifuged at 1800× g (4 °C) for 8 min before pipetting. […] The peak plasma concentration, Cmax, and Tmax (the time to reach Cmax) for DPZ and TAD were calculated using individual plasma concentration–time profiles. […] The apparent clearance (CL/F) was calculated as CL/F = dose/AUC0-∞. […]
ENDPOINT: AUC(0-t) (ng·h/mL)
Number only, in ng·h/mL; omit the unit.

Problem: Recorded AUC(0-t) of CN1CC(=O)N2[C@H](c3ccc4c(c3)OCO4)c3[nH]c4ccccc4c3C[C@@H]2C1=O , please.
Result: 47

---

EXPERIMENTAL DETAILS: Pharmacokinetic interaction study after oral administration of DPZ and TAD, alone or in combination, in rats
STUDY CONDITIONS: male, Sprague-Dawley, rat, plasma, po, 0.3 mg/kg
ENDPOINT: Tmax
Mention the unit after the number when you answer.

Problem: Recorded Tmax of CN1CC(=O)N2[C@H](c3ccc4c(c3)OCO4)c3[nH]c4ccccc4c3C[C@@H]2C1=O [Tadalafil, tadalafil] , please.
Result: 30 min

---

EXPERIMENTAL DETAILS: Pharmacokinetic interaction study after oral administration of DPZ and TAD, alone or in combination, in rats
STUDY CONDITIONS: male, Sprague-Dawley, rat, plasma, po, 0.3 mg/kg
Experimental: The rat plasma was stored at −70 °C. The plasma samples were thawed at room temperature and then centrifuged at 1800× g (4 °C) for 8 min before pipetting. […] The peak plasma concentration, Cmax, and Tmax (the time to reach Cmax) for DPZ and TAD were calculated using individual plasma concentration–time profiles. […] The apparent clearance (CL/F) was calculated as CL/F = dose/AUC0-∞. […]
ENDPOINT: half-life (h)
Number only, in h; omit the unit.

Problem: Recorded half-life of CN1CC(=O)N2[C@H](c3ccc4c(c3)OCO4)c3[nH]c4ccccc4c3C[C@@H]2C1=O , please.
Result: 1.52

---

EXPERIMENTAL DETAILS: Pharmacokinetic interaction study after oral administration of DPZ and TAD, alone or in combination, in rats
STUDY CONDITIONS: male, Sprague-Dawley, rat, plasma, po, 0.3 mg/kg
ENDPOINT: MRT last (h)
Number only, in h; omit the unit.

Problem: Recorded MRT last of CN1CC(=O)N2[C@H](c3ccc4c(c3)OCO4)c3[nH]c4ccccc4c3C[C@@H]2C1=O , please.
Result: 2.53
